Source listed as patent US20120021995A1.

- subject.of.test: T1, recombinant human TRAIL R1 (DR4)/Fc chimera (human, UniProt O00220 24-239)
- T1 construct: bought (R&D Systems); not shown: Fc of the bought chimera (R&D Systems)
- T1 sequence: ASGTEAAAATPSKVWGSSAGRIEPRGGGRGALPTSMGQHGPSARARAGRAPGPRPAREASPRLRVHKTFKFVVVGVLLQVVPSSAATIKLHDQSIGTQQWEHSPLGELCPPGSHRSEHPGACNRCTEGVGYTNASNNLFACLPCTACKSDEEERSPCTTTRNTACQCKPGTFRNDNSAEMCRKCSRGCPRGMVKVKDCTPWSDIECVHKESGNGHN
- test.description: SPR (Biacore), ATRIMER
experimental.endpoint: pKd
pKd field: float, defined as -log10 of concentration (mol/L).

Form field pKd, entry 119p94P1C1 (designed binder, ATRIMER from pANA19) EPPTQKPKKIVNAKKDVVNTKMFEELKSRLDTLAQEVALLKEQQALQTVCLKGTKVHMKCFLAFTQTKTFHEASEDCISRGGTLSTPQTGSENDALYEYLRQSVGNEAEIWLGLNGWLEGVGWVDMTGARIAYKNWAISDERQPDGGWPFSNENCAVLSGAANGKWFDKRCRDQLPYICQFGIV : 8.73

Form field pKd, entry 119p94P1B5 (designed binder, ATRIMER from pANA19) EPPTQKPKKIVNAKKDVVNTKMFEELKSRLDTLAQEVALLKEQQALQTVCLKGTKVHMKCFLAFTQTKTFHEASEDCISRGGTLSTPQTGSENDALYEYLRQSVGNEAEIWLGLNGWLEGVGWVDMTGARIAYKNWARHINEQPDGGWPFSNENCAVLSGAANGKWFDKRCRDQLPYICQFGIV : 8.95

Okay, now this binder:
Form field pKd, entry 119p94P1B4 (designed binder, ATRIMER from pANA19) EPPTQKPKKIVNAKKDVVNTKMFEELKSRLDTLAQEVALLKEQQALQTVCLKGTKVHMKCFLAFTQTKTFHEASEDCISRGGTLSTPQTGSENDALYEYLRQSVGNEAEIWLGLNGWLEGVGWVDMTGARIAYKNWAEVPFFQPDGGWPFSNENCAVLSGAANGKWFDKRCRDQLPYICQFGIV : 8.55
